src = paper PMC12254379

Target: rhPRDX1 (PRDX1) (Homo sapiens)
Construct: pET28a His-tagged, expressed in E. coli BL21, His-purified; homodimer in docking model; endogenous protein of U2932 lysate in the Biotin-ART pull-down
Sequence (Q06830 2-199): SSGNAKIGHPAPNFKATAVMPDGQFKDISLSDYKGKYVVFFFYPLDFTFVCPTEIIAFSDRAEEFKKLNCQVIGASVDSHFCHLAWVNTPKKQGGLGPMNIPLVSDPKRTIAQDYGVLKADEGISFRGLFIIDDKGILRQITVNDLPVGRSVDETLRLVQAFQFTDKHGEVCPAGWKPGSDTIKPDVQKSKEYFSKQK
Experiment: intrinsic fluorescence titration, Hill plot
recorded.endpoint: Kd (µM)
Give the value in µM but do not write µM after it.

Any idea what Kd was measured for C[C@H]1[C@H](OC(=O)CCC(=O)O)O[C@@H]2O[C@@]3(C)CC[C@H]4[C@H](C)CC[C@@H]1[C@@]24OO3 [Artesunate] ? 6.1
